molecules and their reported GI50
Test system: HOP-62
Assay: NCI tumour cell line growth inhibition, 48 h
Calls of active or inactive are those of the source. No stated cut-off is given here; in the data, active = GI50 up to about 1.1 µM and inactive = higher.
outcome measure: GI50

> print(dat)
                                   molecule  outcome.measure               result
1  O=C(c1ccco1)N(Cc1cccnc1)C(=S)N(Cc1cccnc1)C(=O)c1ccco1             GI50   13.1 µM (inactive)
2  Cc1ccc(NC(=O)CC2SC(=N)NC2=O)cc1C (stereo not given)             GI50  > 100 µM (inactive)
3  C=C1C(=O)O[C@H]2[C@H]3O[C@@H](C[C@@H]12)[C@@]1(C)CC[C@H](O1)C(C)=CCC[C@H]3C             GI50   6.27 µM (inactive)
4  CC12CCC3=C(CSC4=C3CSc3ccccc34)C1=CCCC2=O (stereo not given)             GI50   20.4 µM (inactive)
5  CN1Cc2c(nc(-c3ccc(Br)cc3)c[n+]2[O-])N(C)C1             GI50  > 100 µM (inactive)

The measured values listed here are drawn from ChEMBL document CHEMBL1201862.
